Form field: pIC50 (one value per entry).
# assay remarks: In vitro for platelet activating factor receptor antagonist activity in a binding assay using washed whole dog platelets.
pIC50: −log10 of the molar value.
observed property: pIC50

[[record]]
smiles_string = "Cc1nnc2n1-c1sc(/C=C\\C(=O)N3CCOCC3)cc1C(c1ccccc1Cl)=NC2"
observed_value = 6.74

[[record]]
smiles_string = "Cc1nnc2n1-c1sc(CCc3ccc4c(c3)CCC4)cc1C(c1ccccc1Cl)=NC2"
observed_value = 7.70

[[record]]
smiles_string = "Cc1nnc2n1-c1sc(-c3nn[nH]c3C(=O)N3CCOCC3)cc1C(c1ccccc1Cl)=NC2"
observed_value = 6.00

[[record]]
smiles_string = "Cc1nnc2n1-c1sc(CCc3ccc(CC(C)C)cc3)cc1C(c1ccccc1Cl)=NC2"
observed_value = 7.52

[[record]]
smiles_string = "Cc1nnc2n1-c1sc(CCc3ccc(-c4ccccn4)s3)cc1C(c1ccccc1Cl)=NC2"
observed_value = 8.10

[[record]]
smiles_string = "CCCCc1ccc(/C=C\\c2cc3c(s2)-n2c(C)nnc2CN=C3c2ccccc2Cl)cc1"
observed_value = 8.00

[[record]]
smiles_string = "Cc1nnc2n1-c1sc(/C=C\\c3ccc(C4CCCCC4)cc3)cc1C(c1ccccc1Cl)=NC2"
observed_value = 6.92

[[record]]
smiles_string = "Cc1nnc2n1-c1sc(CCc3ccc(-n4ccnc4)cc3)cc1C(c1ccccc1Cl)=NC2"
observed_value = 7.00

[[record]]
smiles_string = "C#Cc1cc2c(s1)-n1c(C)nnc1CN=C2c1ccccc1Cl"
observed_value = 8.00


* * *

# assay remarks: In vitro for platelet activating factor receptor antagonist activity in a binding assay using washed whole dog platelets.
pIC50: −log10 of the molar value.
Decide by pIC50: equal to or exceeding 7 means Y, less means N.

[[record]]
compound = "Cc1nnc2n1-c1sc(C#Cc3ccc4c(c3)CCC4)cc1C(c1ccccc1Cl)=NC2"
cat = "N"

[[record]]
compound = "Cc1nnc2n1-c1sc(C#Cc3ccc(C4CCCCC4)cc3)cc1C(c1ccccc1Cl)=NC2"
cat = "N"

[[record]]
compound = "Cc1nnc2n1-c1sc(C#CCO)cc1C(c1ccccc1Cl)=NC2"
cat = "N"

[[record]]
compound = "Cc1nnc2n1-c1sc(Br)cc1C(c1ccccc1Cl)=NC2"
cat = "N"

[[record]]
compound = "CCCCc1ccc(CCc2cc3c(s2)-n2c(C)nnc2CN=C3c2ccccc2Cl)cc1"
cat = "Y"

[[record]]
compound = "Cc1cc(C#Cc2cc3c(s2)-n2c(C)nnc2CN=C3c2ccccc2Cl)cc2c1OC(C)(C)C2"
cat = "N"

[[record]]
compound = "Cc1nnc2n1-c1sc(CCc3ccc(C4CCCCC4)cc3)cc1C(c1ccccc1Cl)=NC2"
cat = "Y"

[[record]]
compound = "Cc1nnc2n1-c1sc(C(CC(=O)N3CCOCC3)N=N)cc1C(c1ccccc1Cl)=NC2 (stereo not drawn)"
cat = "N"

[[record]]
compound = "Cc1cc(CCc2cc3c(s2)-n2c(C)nnc2CN=C3c2ccccc2Cl)cc2c1OC(C)(C)C2"
cat = "N"

[[record]]
compound = "CCCCc1ccc(C#Cc2cc3c(s2)-n2c(C)nnc2CN=C3c2ccccc2Cl)cc1"
cat = "N"

[[record]]
compound = "Cc1nnc2n1-c1sc(C#Cc3ccc4c(c3)CCO4)cc1C(c1ccccc1Cl)=NC2"
cat = "N"

[[record]]
compound = "Cc1nnc2n1-c1sc(C#Cc3ccc(-c4ccccn4)s3)cc1C(c1ccccc1Cl)=NC2"
cat = "Y"

[[record]]
compound = "Cc1nnc2n1-c1sc(C#Cc3ccccn3)cc1C(c1ccccc1Cl)=NC2"
cat = "N"

[[record]]
compound = "Cc1nnc2n1-c1sc(-c3cc(=O)[nH][nH]3)cc1C(c1ccccc1Cl)=NC2"
cat = "N"

[[record]]
compound = "Cc1nnc2n1-c1sc(CCc3ccc4c(c3)CCO4)cc1C(c1ccccc1Cl)=NC2"
cat = "Y"

[[record]]
compound = "Cc1nnc2n1-c1sc(C#C[Si](C)(C)C)cc1C(c1ccccc1Cl)=NC2"
cat = "Y"


* * *

# assay remarks: Compound tested in vitro for Platelet activating factor receptor antagonist activity in a binding assay using washed whole dog platelets
observed property: IC50 (nM)

[[record]]
smiles_string = "Cc1nnc2n1-c1sc(C#Cc3ccc(CC(C)C)cc3)cc1C(c1ccccc1Cl)=NC2"
observed_property = "IC50"
unit_string = "nM"
observed_value = 100

[[record]]
smiles_string = "Cc1nnc2n1-c1sc(/C=C\\c3ccccn3)cc1C(c1ccccc1Cl)=NC2"
observed_property = "IC50"
unit_string = "nM"
observed_value = 400

[[record]]
smiles_string = "Cc1nnc2n1-c1sc(C#Cc3cccc4ccccc34)cc1C(c1ccccc1Cl)=NC2"
observed_property = "IC50"
unit_string = "nM"
observed_value = 150

[[record]]
smiles_string = "Cc1nnc2n1-c1sc(C#CC(=O)N3CCOCC3)cc1C(c1ccccc1Cl)=NC2"
observed_property = "IC50"
unit_string = "nM"
observed_value = 260

[[record]]
smiles_string = "Cc1nnc2n1-c1sc(C#Cc3ccccc3)cc1C(c1ccccc1Cl)=NC2"
observed_property = "IC50"
unit_string = "nM"
observed_value = 100

